Each record here notes measured CTGlo-ATS Mean MinResponse % 72 h PANC0504.1.
# Test system: Panc 05.04 cells (SF3b K700E mutant)
# PROCEDURE DETAILS: Cell proliferation and viability, CellTiter-Glo, 72 hours
# Format: cell-based
# STUDY CONDITIONS: PANC0504.1 cells, 72 h; −100% cidal, 0% static, 100% maximal growth
Quick reminder: number only, in %, skip the unit.

// field: CTGlo-ATS Mean MinResponse % 72 h PANC0504.1; key: C/C(=C\c1cc(F)cc(N2CCOCC2)c1)[C@H]1OC(=O)C[C@H](O)CC[C@H](C)[C@@H](OC(=O)N2CCN(C(C)C)CC2)/C=C/[C@@H]1C ; value = −89.895

// field: CTGlo-ATS Mean MinResponse % 72 h PANC0504.1; key: C/C(=C\c1cc(F)cc(N2CCN(CCO)CC2)c1)[C@H]1OC(=O)C[C@H](O)CC[C@H](C)[C@@H](OC(=O)N(C)C2CCN(C)CC2)/C=C/[C@@H]1C ; value = −94.487

// field: CTGlo-ATS Mean MinResponse % 72 h PANC0504.1; key: C/C(=C\c1cc(F)cc(N2CCN(CC(=O)C3CC3)CC2)c1)[C@H]1OC(=O)C[C@H](O)CC[C@H](C)[C@@H](OC(=O)N2CCN(C)CC2)/C=C/[C@@H]1C ; value = −89.010

// field: CTGlo-ATS Mean MinResponse % 72 h PANC0504.1; key: C/C(=C\c1cc(F)cc(N(C)C2CCS(=O)(=O)CC2)c1)[C@H]1OC(=O)C[C@H](O)CC[C@H](C)[C@@H](OC(=O)N2CCN(C)CC2)/C=C/[C@@H]1C ; value = −88.455

---

# SUBJECT OF TEST: SF3b complexes (Homo sapiens, UniProt O75533+Q7RTV0)
# Construct: endogenous in cells; host or cells: Nuclear extracts; A HeLa S3 extract preparation is described for the in vitro splicing assay
# PROCEDURE DETAILS: Scintillation proximity assay (SPA) with [3H]-labelled pladienolide probe
# Format: binding
# STUDY CONDITIONS: SF3B1 (WT); geometric mean; read-out: SPA-ATS GMean IC50 (nM) SF3B1 (WT)
Each record here notes measured IC50.
Quick reminder: number only, in nM, skip the unit.

| COMPOUND | SUBJECT OF TEST | ATTRIBUTE MEASURED | MEASURED NUMBER |
| --- | --- | --- | --- |
| C/C(=C\c1cc(F)cc(N2CCO[C@@H](C)C2)c1)[C@H]1OC(=O)C[C@H](O)CC[C@H](C)[C@@H](OC(=O)N2CCN(C)CC2)/C=C/[C@@H]1C [Compound 69] | SF3b complexes (Homo sapiens, UniProt O75533+Q7RTV0) | IC50 | 3.83 |

Here is another compound to look at.
// field: IC50; key: C/C(=C\c1cccc(COC(=O)N2CC[C@@H](O)C2)c1)[C@H]1OC(=O)C[C@H](O)CC[C@H](C)[C@@H](OC(=O)N2CCN(C)CC2)/C=C/[C@@H]1C [Compound 254] ; value = 5.12

---

# Test system: Panc 05.04 cells (SF3b K700E mutant)
# PROCEDURE DETAILS: Cell proliferation and viability, CellTiter-Glo, 72 hours
# Assay type: cell-based
# STUDY CONDITIONS: 72 h; PANC0504.1; -100% = cidal, 0% = static, 100% = uninhibited growth
Decision: CTGlo-ATS Mean MinResponse % 72 h PANC0504.1 >= -90% yields true (1), all other cases yield false (0).

Previously resolved entries follow.
| COMPOUND | SUBJECT OF TEST | DISCRETE LABEL |
| --- | --- | --- |
| C/C(=C\c1cccc(NS(=O)(=O)C2CC2)c1)[C@H]1OC(=O)C[C@H](O)CC[C@H](C)[C@@H](OC(=O)N2CCN(C)CC2)/C=C/[C@@H]1C | Panc 05.04 cells (SF3b K700E mutant) | true (1) |
| C/C(=C\c1cccc(COC(=O)N2CC[C@@H](F)C2)c1)[C@H]1OC(=O)C[C@H](O)CC[C@H](C)[C@@H](OC(=O)N2CCN(C)CC2)/C=C/[C@@H]1C [Compound 260] | Panc 05.04 cells (SF3b K700E mutant) | true (1) |
| COCC(=O)Nc1cc(F)cc(/C=C(\C)[C@H]2OC(=O)CC(O)CCC(C)[C@@H](OC(=O)N3CCN(C)CC3)/C=C/[C@@H]2C)c1 (stereo in doubt) | Panc 05.04 cells (SF3b K700E mutant) | false (0) |

Problem: State whether the measured CTGlo-ATS Mean MinResponse % 72 h PANC0504.1 reaches -90%, counting equality as reaching it, for C/C(=C\c1cccc(COC(=O)N(C)C)c1)[C@H]1OC(=O)C[C@H](O)CC[C@H](C)[C@@H](OC(=O)N2CCN(C)CC2)/C=C/[C@@H]1C
Result: true (1)

Problem: State whether the measured CTGlo-ATS Mean MinResponse % 72 h PANC0504.1 reaches -90%, counting equality as reaching it, for C/C(=C\c1cc(F)cc(NC(=O)CC2CC2)c1)[C@H]1OC(=O)C[C@H](O)CC[C@H](C)[C@@H](OC(=O)N2CCN(C)CC2)/C=C/[C@@H]1C
Result: false (0)

---

Each record here notes measured IC50.
# SUBJECT OF TEST: SF3b complexes (Homo sapiens, UniProt O75533+Q7RTV0)
# Construct: endogenous in cells; host or cells: Nuclear extracts; A HeLa S3 extract preparation is described for the in vitro splicing assay
# PROCEDURE DETAILS: Scintillation proximity assay (SPA) with [3H]-labelled pladienolide probe
# Assay type: binding
# STUDY CONDITIONS: SF3B1 (WT); geometric mean; read-out: SPA-ATS GMean IC50 (nM) SF3B1 (WT)
Quick reminder: number only, in nM, skip the unit.

| COMPOUND | IC50 / nM |
| --- | --- |
| C/C(=C\c1cc(F)cc(N(C)CC2CCN(S(C)(=O)=O)CC2)c1)[C@H]1OC(=O)C[C@H](O)CC[C@H](C)[C@@H](OC(=O)N2CCN(C)CC2)/C=C/[C@@H]1C [Compound 187] | 43.2 |
| C/C(=C\c1cc(F)cc(N2CCOC[C@@H]2CO)c1)[C@H]1OC(=O)C[C@H](O)CC[C@H](C)[C@@H](OC(=O)N2CCN(C)CC2)/C=C/[C@@H]1C [Compound 77] | 1.78 |

Here is another compound to look at.
// field: IC50; key: C/C(=C\c1cc(F)cc(N2CCS(=O)(=O)CC2)c1)[C@H]1OC(=O)C[C@H](O)CC[C@H](C)[C@@H](OC(=O)N2CCN(C)CC2)/C=C/[C@@H]1C [Compound 52] ; value = 8.3

---

# Tested on: Panc 05.04 cells (SF3b K700E mutant)
# PROCEDURE DETAILS: Cell proliferation and viability, CellTiter-Glo, 72 hours
# Assay type: cell-based
# STUDY CONDITIONS: 72 h; PANC0504.1; -100% = cidal, 0% = static, 100% = uninhibited growth
Decision: CTGlo-ATS Mean MinResponse % 72 h PANC0504.1 >= -90% yields true, all other cases yield false.

Previously resolved entries follow.
| COMPOUND | DISCRETE LABEL |
| --- | --- |
| C/C(=C\c1cccc(S(=O)(=O)N2CCCCC2)c1)[C@H]1OC(=O)C[C@H](O)CC[C@H](C)[C@@H](OC(=O)N2CCN(C)CC2)/C=C/[C@@H]1C | true |
| C/C(=C\c1cccc(COC(=O)N2CC[C@@H](O)C2)c1)[C@H]1OC(=O)C[C@H](O)CC[C@H](C)[C@@H](OC(=O)N2CCN(C)CC2)/C=C/[C@@H]1C | true |
| CNS(=O)(=O)c1cccc(/C=C(\C)[C@H]2OC(=O)CC(O)CCC(C)[C@@H](OC(=O)N3CCN(C)CC3)/C=C/[C@@H]2C)c1 (stereo in doubt) | true |
| C/C(=C\c1cc(F)cc(N2CCOCC2)c1)[C@H]1OC(=O)C[C@H](O)CC[C@H](C)[C@@H](OC(=O)N(C)CCC#N)/C=C/[C@@H]1C | false |
| C/C(=C\c1cc(F)cc(N2CCOCC2)c1)[C@H]1OC(=O)C[C@H](O)CC[C@H](C)[C@@H](OC(=O)N2CCN(C)C(C)(C)C2)/C=C/[C@@H]1C | false |

Problem: State whether the measured CTGlo-ATS Mean MinResponse % 72 h PANC0504.1 reaches -90%, counting equality as reaching it, for C/C(=C\c1cc(F)cc(N2CCN(C(=O)Cn3cccn3)CC2)c1)[C@H]1OC(=O)C[C@H](O)CC[C@H](C)[C@@H](OC(=O)N2CCNCC2)/C=C/[C@@H]1C
Result: true

Problem: State whether the measured CTGlo-ATS Mean MinResponse % 72 h PANC0504.1 reaches -90%, counting equality as reaching it, for CC(=O)N1CCC(n2nnc3c(F)cc(/C=C(\C)[C@H]4OC(=O)C[C@H](O)CC[C@H](C)[C@@H](OC(=O)N5CCNCC5)/C=C/[C@@H]4C)cc32)CC1
Result: true
